Where do these numbers come from? They come from patent US20120237528A1.

biological target: T1, recombinant extracellular domain (ECD) of human TF, amino acid 1-219 of the mature chain, C-terminal His6-tag (human, UniProt P13726 33-251); test: Biacore
T1 construct: expressed in a mammalian system; used for ELISA and Biacore; biotinylated by NHS-ester for the Fab ELISA; also called His6-TF-ECD1-219; HumanTF1-219
# Lookup of reported pKd keyed by entry
For clarity, pKd is expressed as the negative log10 of concentration in mol/L.

As a guide, the following entries are already answered.
>  <binder>
M1646 (antibody, V domains shown, complete MAb; FR4 is its own entry; also called H171/L138) VH: EVQLVQSGAEVKKPGESLRISCKGSGYTFAPYWIEWVRQMPGKGLEWMGDILPGTGFTTYSPSFQGHVTISADKSISTAYLQWSSLKASDTAMYYCARSGYYGNSGFAYWGQGTLVTVSS VL: DIVMTQTPLSLPVTPGEPASISCKSSQSLLWFVNQKNYLTWYLQKPGQSPQLLIYHASTRESGVPDRFSGSGSGTDFTLKISRVEAEDVGVYYCQNDDSYPLTFGQGTKLEIK

>  <pKd>
9.72

$$$$
>  <binder>
M1604 (antibody, V domains shown, complete MAb; FR4 is its own entry; also called H138/L3) VH: EVQLVQSGAEVKKPGESLRISCKGSGYTFAPYWIEWVRQMPGKGLEWMGDILPGTGYTWYSPSFQGHVTISADKSISTAYLQWSSLKASDTAMYYCARSGYYGNSGFAYWGQGTLVTVSS VL: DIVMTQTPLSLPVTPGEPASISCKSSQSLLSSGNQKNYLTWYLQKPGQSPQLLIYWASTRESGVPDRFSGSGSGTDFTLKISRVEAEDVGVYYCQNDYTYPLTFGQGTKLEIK

>  <pKd>
9.85

$$$$

Query string: Indicate the recorded pKd value for this binder: M1610 (antibody, V domains shown, complete MAb; FR4 is its own entry; also called H115/L3) VH: EVQLVQSGAEVKKPGESLRISCKGSGYTFAPYWIEWVRQMPGKGLEWMGDIIPGTGYTTYSPSFQGHVTISADKSISTAYLQWSSLKASDTAMYYCARSGYYGNSGFAYWGQGTLVTVSS VL: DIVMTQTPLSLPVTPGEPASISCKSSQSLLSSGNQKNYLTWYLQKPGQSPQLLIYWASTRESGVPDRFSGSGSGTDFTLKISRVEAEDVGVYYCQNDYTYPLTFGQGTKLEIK
Result string: 9.27
